# assay_target: Xanthine oxidase (from bovine milk, Sigma) (Bos taurus (Bovine), UniProt P80457)
# Sequence (P80457 whole entry): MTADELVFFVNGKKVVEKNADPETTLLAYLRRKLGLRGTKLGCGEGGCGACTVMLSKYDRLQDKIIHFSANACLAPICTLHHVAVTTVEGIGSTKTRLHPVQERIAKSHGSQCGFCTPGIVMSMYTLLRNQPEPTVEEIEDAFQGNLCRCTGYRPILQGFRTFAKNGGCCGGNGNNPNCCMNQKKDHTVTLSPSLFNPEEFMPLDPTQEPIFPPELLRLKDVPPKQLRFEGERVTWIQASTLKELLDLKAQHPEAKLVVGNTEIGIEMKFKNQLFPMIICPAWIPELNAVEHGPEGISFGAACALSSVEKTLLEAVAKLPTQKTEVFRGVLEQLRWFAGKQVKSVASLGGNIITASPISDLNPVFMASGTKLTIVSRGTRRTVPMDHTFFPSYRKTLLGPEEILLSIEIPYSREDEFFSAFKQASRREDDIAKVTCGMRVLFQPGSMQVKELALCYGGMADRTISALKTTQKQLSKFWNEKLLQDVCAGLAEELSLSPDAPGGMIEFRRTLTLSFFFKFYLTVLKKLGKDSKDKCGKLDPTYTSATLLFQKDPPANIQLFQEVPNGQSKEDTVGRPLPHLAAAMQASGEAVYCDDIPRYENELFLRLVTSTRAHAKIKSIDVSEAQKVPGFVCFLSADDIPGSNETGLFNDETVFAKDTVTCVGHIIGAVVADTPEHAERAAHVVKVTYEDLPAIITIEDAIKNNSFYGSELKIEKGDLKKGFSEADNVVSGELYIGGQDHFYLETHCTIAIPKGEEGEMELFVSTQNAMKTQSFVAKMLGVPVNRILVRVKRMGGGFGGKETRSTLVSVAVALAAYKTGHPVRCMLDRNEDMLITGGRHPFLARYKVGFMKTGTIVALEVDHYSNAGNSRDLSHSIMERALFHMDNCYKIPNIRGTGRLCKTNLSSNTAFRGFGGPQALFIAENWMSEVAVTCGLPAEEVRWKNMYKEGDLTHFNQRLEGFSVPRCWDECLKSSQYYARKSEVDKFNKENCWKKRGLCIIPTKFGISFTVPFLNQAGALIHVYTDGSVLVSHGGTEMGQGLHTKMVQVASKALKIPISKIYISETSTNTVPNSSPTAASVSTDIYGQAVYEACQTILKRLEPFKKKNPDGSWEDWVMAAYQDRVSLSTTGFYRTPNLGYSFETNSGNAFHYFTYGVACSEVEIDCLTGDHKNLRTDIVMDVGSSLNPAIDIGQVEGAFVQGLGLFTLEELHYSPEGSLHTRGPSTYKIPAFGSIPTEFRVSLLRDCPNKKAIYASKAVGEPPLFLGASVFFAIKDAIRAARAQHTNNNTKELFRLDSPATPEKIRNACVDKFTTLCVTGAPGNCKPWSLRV
# assay_protocol: Xanthine oxidase inhibitory activity
# Format: biochemical
# experimental_context: 0.02 units/mL, xanthine 200 μM, 10 minutes at room temperature, absorbance at 290 nm
reported_endpoint: IC50 (nM)
Respond with the bare value in nM.

Enquiry: Report IC50 for CCOC(=O)c1cn(-c2ccc(C(=O)O)cc2)cc1C(F)(F)F please.
Return: 45.4

Enquiry: Report IC50 for N#Cc1cn(-c2ccc(C(=O)O)cc2)cc1-c1ccc(O)cc1 please.
Return: 2.5

Enquiry: Report IC50 for N#Cc1cn(-c2ccc(C(=O)O)cc2)cc1CCC1CCCO1 (centres unmarked) please.
Return: 4.7

Enquiry: Report IC50 for CN(C)/C=N/c1nn(-c2ccc(C(=O)O)cc2)cc1C#N please.
Return: 5.3

Enquiry: Report IC50 for N#Cc1cn(-c2ccc(C(=O)O)cc2)nc1-c1csc2ccccc12 please.
Return: 7.5

====

# assay_target: Xanthine oxidase (from bovine milk, Sigma) (Bos taurus (Bovine), UniProt P80457)
# assay_protocol: Xanthine oxidase inhibitory activity
# Type: biochemical
# experimental_context: 0.02 units/mL, xanthine 200 μM, 10 minutes at room temperature, absorbance at 290 nm
The compounds listed here are annotated with their pIC50.
The scale used: pIC50 is minus the common logarithm of the concentration in molar units.

- compound: "N#Cc1cn(-c2ccc(C(=O)O)cc2)cc1-c1ccccc1Oc1ccccc1 [Example 164]"
  pIC50: 7.48

Enquiry: Report pIC50 for N#Cc1cn(-c2ccc(C(=O)O)c(O)c2)cc1-c1c(F)cccc1F [Example 274] please.
Return: 8.30

Enquiry: Report pIC50 for N#Cc1cn(-c2ccc(C(=O)O)cc2)cc1-c1cccc(OCc2ccsc2)c1 [Example 174] please.
Return: 7.75

Enquiry: Report pIC50 for CCOCCOc1ccccc1-c1cn(-c2ccc(C(=O)O)cc2)cc1C#N [Example 213] please.
Return: 7.77

Enquiry: Report pIC50 for N#Cc1cn(-c2ccc(C(=O)O)cc2)cc1-c1ccc(-c2ccccc2)cc1 [Example 163] please.
Return: 7.38

====

# assay_target: Xanthine oxidase (from bovine milk, Sigma) (Bos taurus (Bovine), UniProt P80457)
# assay_protocol: Xanthine oxidase inhibitory activity
# Assay type: biochemical
# experimental_context: 100 μM xanthine final, absorbance at 290 nm
reported_endpoint: log10(IC50) (log10 of the value in nM)
// stored as log10 of IC50 expressed in nM

Reference set (4 entries):
- mol: "N#Cc1cn(-c2cc(C(=O)O)ccn2)cc1-c1ccc(Cl)cc1"
  reported_endpoint: "log10(IC50)"
  readout_number: 1.52
- mol: "N#Cc1cn(-c2ccc(C(=O)O)c(O)c2)cc1-c1ccccc1F"
  reported_endpoint: "log10(IC50)"
  readout_number: 0.91
- mol: "N#Cc1cn(-c2ccc(C(=O)O)c(O)c2)cc1-c1cccc2c1OCO2"
  reported_endpoint: "log10(IC50)"
  readout_number: 0.81
- mol: "CCOC(=O)c1cn(-c2ccc(C(=O)O)c(O)c2)cc1C(F)(F)F"
  reported_endpoint: "log10(IC50)"
  readout_number: 0.82

Enquiry: Give recorded log10(IC50) with Xanthine oxidase (from bovine milk, Sigma) (Bos taurus (Bovine), UniProt P80457) for the following molecule: CC(C)(C)c1nn(-c2ccc(C(=O)O)c(O)c2)cc1C#N
Return: 0.51

Enquiry: Give recorded log10(IC50) with Xanthine oxidase (from bovine milk, Sigma) (Bos taurus (Bovine), UniProt P80457) for the following molecule: N#Cc1cn(-c2ccc(C(=O)O)c(O)c2)cc1Cc1ccccc1
Return: 0.77

Enquiry: Give recorded log10(IC50) with Xanthine oxidase (from bovine milk, Sigma) (Bos taurus (Bovine), UniProt P80457) for the following molecule: Cc1ccc(-c2cn(-c3ccc(C(=O)O)c(O)c3)cc2C#N)cc1
Return: 0.83

Enquiry: Give recorded log10(IC50) with Xanthine oxidase (from bovine milk, Sigma) (Bos taurus (Bovine), UniProt P80457) for the following molecule: CCCOc1cccc(-c2cn(-c3ccc(C(=O)O)c(O)c3)cc2C#N)c1
Return: 1.00

Enquiry: Give recorded log10(IC50) with Xanthine oxidase (from bovine milk, Sigma) (Bos taurus (Bovine), UniProt P80457) for the following molecule: N#Cc1cn(-c2cc(C(=O)O)ccn2)cc1-c1ccc2c(c1)OCCO2
Return: 0.99

====

# assay_target: Xanthine oxidase (from bovine milk, Sigma) (Bos taurus (Bovine), UniProt P80457)
# assay_protocol: Xanthine oxidase inhibitory activity
# Format: biochemical
# experimental_context: 0.02 units/mL, xanthine 200 μM, 10 minutes at room temperature, absorbance at 290 nm
# Method: (1) Preparation of Test Compounds Test compounds were dissolved in DMSO (Wako) at 40 mM concentration and then diluted to intended concentrations with phosphate-buffered saline (PBS). (2) Method for Measurement Xanthine oxidase (from bovine milk, Sigma) was prepared with phosphate-buffered saline (PBS) at 0.02 units/mL, and then the solution was added to 96 well plates at 50 μL/well. […] Absorbance at 290 nm was measured using a microplate reader SpectraMax Plus 384 (Molecular device). […]
The compounds listed here are annotated with their IC50.
Respond with the bare value in nM.

Reference set (8 entries):
- mol: "N#Cc1cn(-c2ccc(C(=O)O)cc2)cc1-c1ccccc1-c1ccccc1"
  IC50 (nM): 31.9
- mol: "N#Cc1cn(-c2ccc(C(=O)O)cc2)cc1-c1ccccc1OCCCCO"
  IC50 (nM): 19.2
- mol: "N#Cc1cn(-c2ccc(C(=O)O)cc2)cc1-c1cccc(OCc2ccccc2)c1"
  IC50 (nM): 52.9
- mol: "N#Cc1cn(-c2ccc(C(=O)O)cc2)cc1CCc1ccccc1"
  IC50 (nM): 3.8
- mol: "N#Cc1cn(-c2ccc(C(=O)O)cc2)cc1-c1cccc(OCCO)c1"
  IC50 (nM): 2.4
- mol: "N#Cc1cn(-c2ccc(C(=O)O)cc2)cc1-c1ccccc1OCc1ccc(Cl)cc1"
  IC50 (nM): 143
- mol: "N#Cc1cn(-c2ccc(C(=O)O)cc2F)cc1-c1ccccc1"
  IC50 (nM): 6.6
- mol: "COc1cccc(COc2cccc(-c3cn(-c4ccc(C(=O)O)cc4)cc3C#N)c2)c1"
  IC50 (nM): 111

Consider the record given below.
Enquiry: Give recorded IC50 with Xanthine oxidase (from bovine milk, Sigma) (Bos taurus (Bovine), UniProt P80457) for the following compound: N#Cc1cn(-c2ccc(C(=O)O)cc2)cc1-c1cccc(OCCCCO)c1
Return: 5.9

====

# assay_target: Xanthine oxidase (from bovine milk, Sigma) (Bos taurus (Bovine))
# assay_protocol: Xanthine oxidase inhibitory activity
# Assay type: biochemical
# experimental_context: 0.02 units/mL, xanthine 200 μM, 10 minutes at room temperature, absorbance at 290 nm
reported_endpoint: log10 of IC50 (log10 of the value in nM)
// stored as log10 of IC50 expressed in nM

Enquiry: Report log10 of IC50 for N#Cc1cn(-c2ccc(C(=O)O)c(O)c2)cc1-c1cccc(F)c1 please.
Return: 0.86

Enquiry: Report log10 of IC50 for Cc1ccc(-c2cn(-c3ccc(C(=O)O)c(O)c3)cc2C#N)c(C)c1 please.
Return: 1.16

Enquiry: Report log10 of IC50 for N#Cc1cn(-c2ccc(C(=O)O)cc2)cc1CCc1ccco1 please.
Return: 0.59

Enquiry: Report log10 of IC50 for N#Cc1cn(-c2ccc(C(=O)O)cc2)nc1OCc1ccccc1 please.
Return: 0.76

Enquiry: Report log10 of IC50 for COCCOc1cccc(-c2cn(-c3ccc(C(=O)O)cc3)cc2C#N)c1 please.
Return: 0.78

Enquiry: Report log10 of IC50 for N#Cc1cn(-c2ccc(C(=O)O)cc2)cc1C(=O)c1ccccc1 please.
Return: 1.03

====

The compounds listed here are annotated with their IC50.
# assay_target: Xanthine oxidase (from bovine milk, Sigma) (Bos taurus (Bovine))
# assay_protocol: Xanthine oxidase inhibitory activity
# Format: biochemical
# experimental_context: 100 μM xanthine final, absorbance at 290 nm
# Description: (1) Preparation of Test Compounds Test compounds were dissolved in DMSO (Wako) at 40 mM concentration and then diluted to intended concentrations with phosphate-buffered saline (PBS). (2) Method for Measurement Xanthine oxidase (from bovine milk, Sigma) was prepared with phosphate-buffered saline (PBS) at 0.02 units/mL, and then the solution was added to 96 well plates at 50 μL/well. […] Absorbance at 290 nm was measured using a microplate reader SpectraMax Plus 384 (Molecular device). […]
Respond with the bare value in nM.

Reference set (4 entries):
- mol: "COCCOc1ccc(-c2cn(-c3ccc(C(=O)O)c(O)c3)cc2C#N)cc1"
  readout_number: 12.2
- mol: "N#Cc1cn(-c2ccc(C(=O)O)c(O)c2)cc1-c1ccc(C(=O)O)cc1"
  readout_number: 4
- mol: "N#Cc1cn(-c2ccc(C(=O)O)c(O)c2)cc1-c1cc(F)ccc1F"
  readout_number: 10.1
- mol: "N#Cc1ccn(-c2ccc(C(=O)O)c(O)c2)c1"
  readout_number: 8.8

Consider the record given below.
Enquiry: Report IC50 for COCCOc1cccc(-c2cn(-c3ccc(C(=O)O)c(O)c3)cc2C#N)c1 please.
Return: 25.7
